system: Signal transducer and activator of transcription 6 (Homo sapiens, UniProt P42226)
Sequence (P42226 whole entry): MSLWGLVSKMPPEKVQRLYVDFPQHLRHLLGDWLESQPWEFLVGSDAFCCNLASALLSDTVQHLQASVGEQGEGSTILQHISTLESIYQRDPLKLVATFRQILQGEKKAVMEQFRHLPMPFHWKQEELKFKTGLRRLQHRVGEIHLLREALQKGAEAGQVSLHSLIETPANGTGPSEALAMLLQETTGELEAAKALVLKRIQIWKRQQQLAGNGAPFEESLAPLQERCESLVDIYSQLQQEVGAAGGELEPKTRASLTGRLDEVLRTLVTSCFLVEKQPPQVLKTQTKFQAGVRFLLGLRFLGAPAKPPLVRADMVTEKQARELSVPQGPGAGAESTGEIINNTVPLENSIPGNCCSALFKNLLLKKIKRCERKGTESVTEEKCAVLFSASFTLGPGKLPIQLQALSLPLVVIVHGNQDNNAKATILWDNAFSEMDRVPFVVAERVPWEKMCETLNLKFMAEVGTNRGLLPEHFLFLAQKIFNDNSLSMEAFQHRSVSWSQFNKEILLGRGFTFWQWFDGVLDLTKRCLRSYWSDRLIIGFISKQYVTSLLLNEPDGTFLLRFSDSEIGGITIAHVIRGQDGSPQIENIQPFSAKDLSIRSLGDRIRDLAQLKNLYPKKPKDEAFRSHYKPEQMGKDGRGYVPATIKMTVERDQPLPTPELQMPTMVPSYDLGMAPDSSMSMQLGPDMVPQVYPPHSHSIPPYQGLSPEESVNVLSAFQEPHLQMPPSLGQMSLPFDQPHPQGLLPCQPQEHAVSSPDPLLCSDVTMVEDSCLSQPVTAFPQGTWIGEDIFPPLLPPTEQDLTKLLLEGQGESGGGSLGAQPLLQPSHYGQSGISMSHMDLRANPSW
assay.method.text: Inhibition of STAT6 in IL4-stimulated human FW4 reporter cells by luciferase assay
pIC50: −log10 of the molar value.
assay.readout: pIC50

OCCN1CCN(c2ccc(Nc3ncc4ccn(Cc5cc(F)cc(F)c5)c4n3)cc2)CC1; 8.25
Fc1ccc(Cn2ccc3cnc(Nc4ccc(N5CCOCC5)cc4)nc32)cc1; 5.39
Fc1ccccc1Cn1ccc2cnc(Nc3ccc(N4CCOCC4)cc3)nc21; 6.66
Fc1cccc(Cn2ccc3cnc(Nc4ccc(N5CCOCC5)cc4)nc32)c1; 7.43

(A) NCCN1CCN(c2ccc(Nc3ncc4ccn(Cc5cc(F)cc(F)c5)c4n3)cc2)CC1
(B) CNC(=O)CN1CCN(c2ccc(Nc3ncc4ccn(Cc5cc(F)cc(F)c5)c4n3)cc2)CC1
(C) c1ccc(Cn2ccc3cnc(Nc4ccc(N5CCOCC5)cc4)nc32)cc1
(D) Fc1cc(F)cc(Cn2ccc3cnc(Nc4ccc(N5CCOCC5)cc4)nc32)c1
### Prompt Let's sort these by pIC50, smallest first. Go ahead? Write out the labels following the order that was asked for.
### Response C, D, A, B

(a) O=C(O)CN1CCN(c2ccc(Nc3ncc4ccn(Cc5cc(F)cc(F)c5)c4n3)cc2)CC1
(b) c1ccc(CN2CCc3cnc(Nc4ccc(N5CCOCC5)cc4)nc32)cc1
### Prompt Look at a and b . Which one has the lower recorded pIC50 number? Identify your selection by its label.
### Response b
(b: 5.08, a: 7.59)

(A) CN1CCN(c2ccc(Nc3ncc4ccn(Cc5cc(F)cc(F)c5)c4n3)cc2)CC1
(B) NC(=O)c1cnc(Nc2ccc(N3CCOCC3)cc2)nc1NCc1c(F)ccc(F)c1F
(C) Fc1cc(F)cc(Cn2ccc3cnc(Nc4ccc(N5CCNCC5)cc4)nc32)c1
### Prompt Let's sort these by pIC50, smallest first. Go ahead? Write out the labels following the order that was asked for.
### Response C, A, B
(C: 7.92, A: 8.49, B: 9.15)

(P) NC(=O)c1cnc(Nc2ccc(N3CCOCC3)cc2)nc1NCc1ccccc1
(Q) NC(=O)CN1CCN(c2ccc(Nc3ncc4ccn(Cc5cc(F)cc(F)c5)c4n3)cc2)CC1
### Prompt Look at P and Q . Which one has the lower recorded pIC50 number? Identify your selection by its label.
### Response P

###

system: UniProtKB P08684
Sequence (P08684 whole entry): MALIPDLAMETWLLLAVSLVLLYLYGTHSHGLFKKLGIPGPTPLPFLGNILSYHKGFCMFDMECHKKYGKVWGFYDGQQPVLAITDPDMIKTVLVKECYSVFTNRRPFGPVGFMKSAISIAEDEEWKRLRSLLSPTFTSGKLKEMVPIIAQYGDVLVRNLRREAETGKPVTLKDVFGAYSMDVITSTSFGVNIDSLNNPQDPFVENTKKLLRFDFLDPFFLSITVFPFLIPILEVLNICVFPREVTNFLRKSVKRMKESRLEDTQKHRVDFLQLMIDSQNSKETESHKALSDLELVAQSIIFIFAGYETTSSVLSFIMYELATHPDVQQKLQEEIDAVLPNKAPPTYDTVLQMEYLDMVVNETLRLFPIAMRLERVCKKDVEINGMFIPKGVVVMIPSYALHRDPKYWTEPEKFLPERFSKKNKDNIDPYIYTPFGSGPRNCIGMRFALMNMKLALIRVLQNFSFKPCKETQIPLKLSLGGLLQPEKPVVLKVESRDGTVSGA
assay.method.text: Inhibition of CYP3A4 in human liver microsomes assessed as residual activity at 5 uM
Type: ADME, Microsome
recorded.conditions: read-out: Activity
assay.readout: activity at 5 µM (%)

Fc1cccc(Cn2ccc3cnc(Nc4ccc(N5CCOCC5)cc4)nc32)c1; 97
Fc1cc(F)cc(Cn2ccc3cnc(Nc4ccc(N5CCOCC5)cc4)nc32)c1; 80
NC(=O)c1cnc(Nc2ccc(N3CCOCC3)cc2)nc1NCc1c(F)ccc(F)c1F; 100
Fc1ccccc1Cn1ccc2cnc(Nc3ccc(N4CCOCC4)cc3)nc21; 78
Fc1ccc(Cn2ccc3cnc(Nc4ccc(N5CCOCC5)cc4)nc32)cc1; 82
O=C(O)CN1CCN(c2ccc(Nc3ncc4ccn(Cc5cc(F)cc(F)c5)c4n3)cc2)CC1; 100
Fc1cc(F)cc(Cn2ccc3cnc(Nc4ccc(N5CCNCC5)cc4)nc32)c1; 74
NCCN1CCN(c2ccc(Nc3ncc4ccn(Cc5cc(F)cc(F)c5)c4n3)cc2)CC1; 65
OCCN1CCN(c2ccc(Nc3ncc4ccn(Cc5cc(F)cc(F)c5)c4n3)cc2)CC1; 86
CN1CCN(c2ccc(Nc3ncc4ccn(Cc5cc(F)cc(F)c5)c4n3)cc2)CC1; 90
NC(=O)CN1CCN(c2ccc(Nc3ncc4ccn(Cc5cc(F)cc(F)c5)c4n3)cc2)CC1; 104
CNC(=O)CN1CCN(c2ccc(Nc3ncc4ccn(Cc5cc(F)cc(F)c5)c4n3)cc2)CC1; 85
c1ccc(Cn2ccc3cnc(Nc4ccc(N5CCOCC5)cc4)nc32)cc1; 88
